Biological target: CECR2 (Homo sapiens)
Construct: T7 phage strains displaying bromodomains were grown; host or cells: T7 phage in E. coli derived from BL21
Sequence (Q9BXF3 434-538 limits assumed): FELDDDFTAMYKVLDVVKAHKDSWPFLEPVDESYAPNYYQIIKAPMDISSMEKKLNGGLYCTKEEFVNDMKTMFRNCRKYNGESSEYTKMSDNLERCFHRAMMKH
Assay: BROMOscan Kd determination CECR2
Type: binding
quantity: log10 Kd (log10 of the value in nM)
Recall that a logarithmic scale is used here: each number is log10 of Kd in nM.

Worked cases, answers included:
Cc1[nH]c(-c2cc(N)ccc2Cl)c2c1C(=O)CCCC2; 2.99
COc1ccc(S(=O)(=O)N2CC3(COC3)C2)cc1NC(=O)c1[nH]c(C)c2c1CCCCC2=O; 2.88
CCN(CC)S(=O)(=O)c1ccc(OC)c(NC(=O)c2[nH]c(C)c3c2CCCCC3=O)c1; 3.04
COc1ccc(S(=O)(=O)N2CCCCCC2)cc1NC(=O)c1[nH]c(C)c2c1CCCCC2=O; 3.91
COc1ccc(S(=O)(=O)N2CCN(C)CC2)cc1NC(=O)c1[nH]c(C)c2c1CCCCC2=O; 2.38

Continue with the compound presented below.
Field log10 Kd (entry `COc1ccc(S(=O)(=O)N2CCCCC2)cc1NC(=O)c1[nH]c(C)c2c1CCCCC2=O` ) reads 2.76
